Where do these numbers come from? They come from the supplement of paper PMC10567573.

Answer each item with its documented protein stability index.
# Assay: protein stability index of a GFP-peptide fusion (GPS, HEK-293T) (PSI 1-6); higher = more stable;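 note: 24-mer peptide tiles fused after GFP, lentivirally expressed, FACS-sorted into six equal bins by GFP/DsRed ratio, decoded by Illumina sequencing, PSI is the read-weighted mean bin number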
# Settings: treatment: MLN4924 1 uM, 8 h; c terminus: a fixed tail appended

Data request: Tell me its protein stability index given DVLAHQVPNAKKLRRKEQLWEKLA [NOP53] as the entry.
Data returned: 3.09

Data request: Look up and state reported protein stability index for SLAETECRYATQLQQIQGLIGGLE [KRT15]
Data returned: 2.91

Data request: Provide protein stability index value for the following sequence: QAALRAARLRHQELFRLRGIKAQV [NOP53]
Data returned: 2.86

Data request: Report protein stability index for FRVLCTAPAKYTVFDAEGYVKPQS [MOSPD3]
Data returned: 2.19

Data request: Using the record for QERQMLQALKFLPVPSAPVIDLAE [FSD1] , state its measured protein stability index.
Data returned: 3.3

Data request: Note down protein stability index recorded for VFDNAIRAALISRRHLQFWKSHLR [RHOBTB2]
Data returned: 2.1

Data request: Give protein stability index for the following sequence: LDCEGTTNKMKSPETKQRKLSPLR [KMT2E]
Data returned: 5.05

Data request: Please indicate protein stability index recorded for EDEDEDKEEEEEDCSEEYLERQLQ [TAF7L]
Data returned: 5.76

Data request: Give me measured protein stability index, please, for this sequence: LGWAQPCDVWSIGCILFEYYRGFT [CLK3]
Data returned: 2.93

Data request: Output measured protein stability index for this item: IPPMAQPGLPPVPGAPGMPPGIPP [ZNF207]
Data returned: 4.4

Data request: Indicate the recorded protein stability index value for this sequence: LEGYRDNAYKDLAWKHGNIHLSAP [PCMTD1]
Data returned: 2.94

Data request: For the sequence YEWARDHRAHHKFSETHADPHNSR [SCD] , report protein stability index.
Data returned: 4.12

Data request: Item SSEVDELIHKADEVTLSEAGSTAG [PALM] : provide protein stability index
Data returned: 5.58

Data request: Please indicate protein stability index recorded for TFDHEHHTTIVATRHYRPPEVILE [CLK3]
Data returned: 3.29

Data request: Please supply the value of reported protein stability index for the item YVLKYMESNAAQYSPEALASIQNH [EFHC1]
Data returned: 2.35

Data request: Identify measured protein stability index corresponding to ARSESVLLHMPQPVNPELTAGPIT [TRIM43]
Data returned: 4.41

Data request: Output protein stability index of SYLLKSGADKEILTTKGEMPVQLT [ANKRD40]
Data returned: 3.55

Data request: Please look at this sequence and report its protein stability index: PTYKVMYKIVTAREWRCCPGHSGV [EMID1]
Data returned: 2.89
